Listing: EC50 of selected compounds
biological target: PPAR delta (Homo sapiens); assay: Transient transfection (transactivation) assay in CV-1 cells, GAL4-PPAR chimera, luciferase reporter
Sequence (Q03181 211-439 limits assumed): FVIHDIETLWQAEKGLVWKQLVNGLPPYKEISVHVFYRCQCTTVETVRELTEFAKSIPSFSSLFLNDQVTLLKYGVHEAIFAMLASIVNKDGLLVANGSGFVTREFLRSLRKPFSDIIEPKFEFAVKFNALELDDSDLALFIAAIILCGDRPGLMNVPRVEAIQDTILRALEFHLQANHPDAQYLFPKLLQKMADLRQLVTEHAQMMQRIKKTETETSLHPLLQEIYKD

Observe how each entry below is paired with its result.
1) Cc1ccc(CC(=O)O)cc1S(=O)(=O)N1CCN(c2ccc(C(C)(C)C)cc2)CC1 :: 5 to 100 µM
2) O=C(O)Cc1cccc(S(=O)(=O)N2CCN(Cc3ccc(F)cc3)CC2)c1 :: 5 to 100 µM
3) O=C(O)CCc1cccc(S(=O)(=O)N2CCN(c3ccc(Cl)cc3)CC2)c1 :: < 5 µM
4) Cc1cc(CC(=O)O)cc(S(=O)(=O)N2CCN(c3ccc(C(F)(F)F)cn3)[C@@H](C)[C@H]2C)c1 (mixture of isomers) :: < 5 µM
5) Cc1ccc(CC(=O)O)cc1S(=O)(=O)N1CCN(c2ccc(Cl)cc2)CC1 :: < 5 µM

Documented EC50 of `Cc1ccc(S(=O)(=O)N2[C@H](C)CN(c3ccc(C(F)(F)F)c(Cl)c3)C[C@@H]2C)cc1CC(=O)O` : < 5 µM

Documented EC50 of `Cc1ccc(CC(=O)O)cc1S(=O)(=O)N1CCN(CC2CCCCC2)CC1` : > 100 µM

Documented EC50 of `O=C(O)Cc1cc(C(F)(F)F)cc(S(=O)(=O)N2CCN(c3ccc(C(F)(F)F)cn3)CC2)c1` : < 5 µM

---

Listing: EC50 of selected compounds
target: PPAR gamma (Homo sapiens); test: Transient transfection (transactivation) assay in CV-1 cells, GAL4-PPAR chimera, luciferase reporter
Sequence (P37231 238-503 limits assumed): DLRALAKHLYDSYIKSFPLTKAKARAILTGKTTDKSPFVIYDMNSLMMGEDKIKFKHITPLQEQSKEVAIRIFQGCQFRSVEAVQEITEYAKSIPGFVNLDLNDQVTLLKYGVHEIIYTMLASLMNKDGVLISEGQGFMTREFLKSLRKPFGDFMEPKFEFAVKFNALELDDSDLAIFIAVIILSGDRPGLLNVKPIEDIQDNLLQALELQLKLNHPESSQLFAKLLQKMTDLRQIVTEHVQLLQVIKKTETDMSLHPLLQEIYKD

Observe how each entry below is paired with its result.
1) Cc1ccc(S(=O)(=O)N2CCC(c3ccc(Cl)c(Cl)c3)CC2)cc1CC(=O)O [Example 49] :: 5 to 100 µM
2) Cc1cc(CC(=O)O)cc(S(=O)(=O)N2CCN(c3ccc(OC(F)(F)F)cc3)C[C@@H]2C)c1 [Example 213] :: 5 to 100 µM
3) Cc1ccc(S(=O)(=O)N2CCN(c3ccc(C(F)(F)F)cn3)C(C)C2)cc1CC(=O)O (centres unmarked) [Example 23] :: < 5 µM
4) C[C@@H]1CN(c2ccc(OC(F)(F)F)cc2)C[C@H](C)N1S(=O)(=O)c1cccc(CC(=O)O)c1 [Example 109] :: > 100 µM
5) Cc1ccc(S(=O)(=O)N2CCN(c3ccc(Cl)c(Cl)c3)CC2)cc1CC(=O)O [Example 175] :: 5 to 100 µM

Documented EC50 of O=C(O)Cc1cccc(S(=O)(=O)N2CCN(c3ccc(F)cc3)CC2)c1 [Example 144] : 5 to 100 µM

Documented EC50 of Cc1ccc(S(=O)(=O)N2CCN(c3ccc(C#N)cn3)CC2)cc1CC(=O)O [Example 28] : > 100 µM

Documented EC50 of Cc1ccc(S(=O)(=O)N2CCN(c3ccc(C(F)(F)F)nn3)CC2)cc1CC(=O)O [Example 74] : > 100 µM

---

target: PPAR delta (Homo sapiens); experiment: Transient transfection (transactivation) assay in CV-1 cells, GAL4-PPAR chimera, luciferase reporter
Listing: EC50 of selected compounds

Observe how each entry below is paired with its result.
1. COCc1cc(CC(=O)O)cc(S(=O)(=O)N2CCN(c3ccc(C(F)(F)F)cc3)CC2)c1 :: 5 to 100 µM
2. Cc1ccc(S(=O)(=O)N2CCN(c3ccc(C(F)(F)F)cn3)C(C)C2)cc1CC(=O)O (stereo not drawn) :: < 5 µM

Switching to the query record.
// returns EC50 for `Cc1ccc(S(=O)(=O)N2C[C@@H]3C[C@H]2CN3c2ccc(F)cc2)cc1CC(=O)O` with PPAR delta (Homo sapiens); value = 5 to 100 µM
